// data source = ChEMBL document CHEMBL1681742

experiment: Cytotoxicity against human IMR90 cells up to 1 uM; assay type: cell-based; settings: imr-90
EXPERIMENTAL ENDPOINT: Activity

| SMILES CODE | EXPERIMENTAL ENDPOINT | RESULT |
| --- | --- | --- |
| C=C1C[C@@H]2CC[C@@]34C[C@H]5O[C@H]6[C@@H](O3)[C@H]3O[C@H](CC[C@@H]3O[C@H]6[C@H]5O4)CC(=O)C[C@@H]3[C@@H](OC)[C@@H](C[C@@H](COCC)OCC)O[C@H]3C[C@H]3O[C@@H](CC[C@@H]1O2)C[C@@H](C)C3=C | Activity | Non-toxic |
| C=C1C[C@@H]2CC[C@@]34C[C@H]5O[C@H]6[C@@H](O3)[C@H]3O[C@H](CC[C@@H]3O[C@H]6[C@H]5O4)CC(=O)C[C@@H]3[C@@H](OC)[C@@H](C[C@@H](CO)OC)O[C@H]3C[C@H]3O[C@@H](CC[C@@H]1O2)C[C@@H](C)C3=C | Activity | Non-toxic |
